The measured values listed here are drawn from patent US8420657B2.

We begin with a simple list: items and their reported IC50.
# measured_on: GST-JAK2(808-1132) (Homo sapiens)
# Construct: GST-JAK2(808-1132); purchased Invitrogen (Carlsbad, USA) #4288
# experiment_notes: JAK2 kinase assay (Caliper mobility shift, LabChip 3000)
# Assay type: biochemical
# Method: All four kinases of the JAK/TYK-kinase family were used as purified recombinant GST-fusion proteins, containing the active kinase domains. GST-JAK1 (866-1154), GST-JAK3(811-1124), and GST-TYK2(888-1187) were expressed and purified by affinity chromatography at the EPK biology unit. […] The terminated reactions were transferred to the Caliper LabChip 3000 reader and the turnover of each reaction was measured by determining the substrate/product ratio. […]

Worked examples, 4 molecules total:
> print(dat)
                                   molecule  result
1  CCN1CCN(c2ccc(Nc3ncc4ccn(-c5ccc(C(=O)N6CCOCC6)c(F)c5)c4n3)cc2C)CC1  < 3 nM
2  CN(C)CCNC(=O)c1cccc(Nc2ncc3ccn(-c4ccc(S(C)(=O)=O)cc4)c3n2)c1  < 3 nM
3  Cc1ccc(Nc2ncc3ccn(-c4cc(F)c(CN5CCS(=O)(=O)CC5)c(F)c4)c3n2)cc1CN1CCC(N(C)C)C1 (racemic)  ≤ 3 nM
4  CCOc1ccc(Nc2ncc3ccn(-c4ccc(CN5CCOCC5)cc4)c3n2)cc1OCC  < 3 nM

The measured IC50 that O=C(c1ccc(Nc2ncc3ccn(-c4cc(F)c(CN5CCOCC5)c(F)c4)c3n2)cc1)N1CCOCC1 showed for GST-JAK2(808-1132) (Homo sapiens) is < 3 nM

The measured IC50 that CC1(C)NCCN(c2cc(Nc3ncc4ccn(-c5cc(F)c(CN6CCOCC6)c(F)c5)c4n3)ccn2)C1=O showed for GST-JAK2(808-1132) (Homo sapiens) is ≤ 3 nM

----------
We begin with a simple list: items and their reported IC50.
# measured_on: GST-JAK2(808-1132) (Homo sapiens)
# Construct: GST-JAK2(808-1132); purchased Invitrogen (Carlsbad, USA) #4288
# experiment_notes: JAK2 kinase assay (Caliper mobility shift, LabChip 3000)
# Format: biochemical

Worked examples, 2 compounds total:
> print(dat)
                            compound.string                        measured.on  result
1  CC1(C)CN(Cc2ccc(Nc3ncc4ccn(-c5cc(F)c(CN6CCOCC6)c(F)c5)c4n3)cc2)CCN1  GST-JAK2(808-1132) (Homo sapiens)  ≤ 3 nM
2  Fc1cc(-n2ccc3cnc(Nc4ccc(OCC5CCOCC5)nc4)nc32)cc(F)c1CN1CCOCC1  GST-JAK2(808-1132) (Homo sapiens)  ≤ 3 nM

# compound Cc1cc(Nc2ncc3ccn(-c4ccc(S(C)(=O)=O)cc4)c3n2)ccc1C(=O)N1CCN(C)CC1 ; its IC50 = < 3 nM

----------
# measured_on: GST-JAK2(808-1132) (Homo sapiens, UniProt O60674)
# Construct: GST-JAK2(808-1132); purchased Invitrogen (Carlsbad, USA) #4288
# Sequence (O60674 808-1132): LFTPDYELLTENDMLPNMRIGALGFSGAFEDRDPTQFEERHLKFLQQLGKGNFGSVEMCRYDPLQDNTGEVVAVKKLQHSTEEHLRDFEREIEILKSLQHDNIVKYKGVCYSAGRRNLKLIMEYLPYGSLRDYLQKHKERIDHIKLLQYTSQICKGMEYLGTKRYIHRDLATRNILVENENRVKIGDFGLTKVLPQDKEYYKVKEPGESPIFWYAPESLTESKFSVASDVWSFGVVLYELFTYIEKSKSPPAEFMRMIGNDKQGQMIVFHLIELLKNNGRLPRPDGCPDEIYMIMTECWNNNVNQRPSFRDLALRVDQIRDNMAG
# experiment_notes: JAK2 kinase assay (Caliper mobility shift, LabChip 3000)
# Assay type: biochemical
pIC50: −log10 of the molar value.
We begin with a simple list: items and their reported pIC50.

> print(dat)
                            compound.string                               measured.on  result
1  CN1CCN(Cc2ccc(Nc3ncc4ccn(-c5cc(F)c(C(=O)N6CCOCC6)c(F)c5)c4n3)cc2C(F)(F)F)CC1  GST-JAK2(808-1132) (Homo sapiens, UniProt O60674)  > 8.52

# molecule CCN1CCN(Cc2ccc(Nc3ncc4ccn(-c5cc(F)c(CN6CCS(=O)(=O)CC6)c(F)c5)c4n3)cc2)CC1 ; its pIC50 = > 8.52

# molecule COc1ccc(Nc2ncc3ccn(-c4ccc(S(C)(=O)=O)cc4)c3n2)cc1N1CCN(C)CC1 ; its pIC50 = > 8.52
